Please respond with reported metabolised at 0.5 h, 5 µM for every item in the list.
Assay remarks: Drug metabolism in human liver microsomes at 5 uM in presence of NADPH after 30 mins at 37 degC
Type: ADME
Condition summary: read-out: Drug metabolism

Inquiry: Any idea what metabolised at 0.5 h, 5 µM was measured for "CCN(Cc1cc(C(F)(F)F)ccc1-c1nn(CC(=O)O)c2ccccc12)C(=O)C1CC1" ?
Reply text: < 5%

Inquiry: Please report the recorded metabolised at 0.5 h, 5 µM for "CCN(Cc1cc(C(F)(F)F)ccc1-c1cc(CC(=O)O)ccc1OC)C(=O)C1CC1" .
Reply text: < 5%

----------
Task for the reader: assign each of the following compounds its reported solubility thermodynamic at 24 h.
Assay remarks: Thermodynamic solubility in pH 1.0 buffer after 24 hrs at 37 degC
Type: physicochemical
Condition summary: read-out: Therm_solubility

Inquiry: What does the record list as solubility thermodynamic at 24 h for "CCN(Cc1cc(C(F)(F)F)ccc1-c1nc(CC(=O)O)c2ccccn12)C(=O)C1CC1" ?
Reply text: > 1000 µg/mL

Inquiry: Request the reported solubility thermodynamic at 24 h associated with "CCN(Cc1cc(C(F)(F)F)ccc1-n1cc(CC(=O)O)c2cccnc21)C(=O)C1CC1"
Reply text: > 1000 µg/mL

Inquiry: Look up solubility thermodynamic at 24 h for this compound: "CCN(Cc1cc(C(F)(F)F)ccc1-c1cn(CC(=O)O)c2ccccc12)C(=O)C1CC1"
Reply text: < 1 µg/mL

Inquiry: I am curious: what solubility thermodynamic at 24 h value has been reported for "CCN(Cc1cc(C(F)(F)F)ccc1-c1cc(CC(=O)O)n2cccnc12)C(=O)C1CC1" ?
Reply text: > 1000 µg/mL

Inquiry: solubility thermodynamic at 24 h for "CCN(Cc1cc(C(F)(F)F)ccc1-c1nn(CC(=O)O)c2ccccc12)C(=O)C1CC1" ?
Reply text: < 1 µg/mL

Inquiry: Would you mind telling me what solubility thermodynamic at 24 h value was observed for "CCN(Cc1cc(C(F)(F)F)ccc1-c1cn(CC(=O)O)c2cccnc12)C(=O)C1CC1" ?
Reply text: > 1000 µg/mL

----------
Assay remarks: Clearance in rat at 1 mg/kg
Assay type: ADME, organism-based
Set-up: dose 1 mg/kg
Condition summary: in vivo
Record form. Attribute: clearance. Fill in for each entry.
Your answer is read as mL/min/kg, so omit the unit and give the number.

Inquiry: Fill in: clearance of "CCN(Cc1cc(C(F)(F)F)ccc1-c1cc(CC(=O)O)ccc1OC)C(=O)C1CC1" is ___
Reply text: 6.9

Inquiry: Need clearance, item "CCN(Cc1cc(C(F)(F)F)ccc1-c1nn(CC(=O)O)c2ccccc12)C(=O)C1CC1"
Reply text: 38

Inquiry: # input compound: "CCN(Cc1cc(C(F)(F)F)ccc1-c1cn(CC(=O)O)c2ccccc12)C(=O)C1CC1" ; wanted: its clearance
Reply text: 30

Inquiry: Give its clearance value. Item: "CCN(Cc1cc(C(F)(F)F)ccc1-n1cc(CC(=O)O)c2cccnc21)C(=O)C1CC1"
Reply text: 19

----------
Please go through the items and note down their metabolised at 2 h, 5 µM.
Assay remarks: Drug metabolism in rat liver microsomes assessed as phase-2 metabolism measured by glucuronidation level at 5 uM in presence of UDPGA after 2 hrs at 37 degC
Assay type: ADME
Condition summary: read-out: Drug metabolism
Use % as the unit, but write only the number.

Inquiry: What value of measured metabolised at 2 h, 5 µM is listed for "CCN(Cc1cc(C(F)(F)F)ccc1-n1cc(CC(=O)O)c2cccnc21)C(=O)C1CC1" ?
Reply text: 6

Inquiry: Using the record for "CCN(Cc1cc(C(F)(F)F)ccc1-c1cn(CC(=O)O)c2ccccc12)C(=O)C1CC1" , report its metabolised at 2 h, 5 µM.
Reply text: 32

Inquiry: Which metabolised at 2 h, 5 µM is reported for this compound? "CCN(Cc1cc(C(F)(F)F)ccc1-c1nn(CC(=O)O)c2ccccc12)C(=O)C1CC1"
Reply text: 12

Inquiry: Consider the compound "CCN(Cc1cc(C(F)(F)F)ccc1-c1cc(CC(=O)O)ccc1OC)C(=O)C1CC1" and give its measured metabolised at 2 h, 5 µM.
Reply text: 21
